Tested on: Mus musculus
experimental.details: Toxicity in C57BL/6 mouse assessed as maximum weight loss at 40 mg/kg, ip
Format: organism-based
Design: dose 40 mg/kg, route intraperitoneal
run.parameters: in vivo
Quick rule for you: Activity at 10% or higher means Fulfilled, lower means Not fulfilled.

>  <structure.smiles>
c1ccc2c(c1)c1ccncc1n2CCCCn1c2ccccc2c2ccncc21

>  <label.class>
Fulfilled

$$$$
>  <structure.smiles>
COc1cc(-c2nccc3c4ccccc4n(CCCCCCn4c5ccccc5c5ccnc(-c6cc(OC)c(OC)c(OC)c6)c54)c23)cc(OC)c1OC

>  <label.class>
Not fulfilled

$$$$
>  <structure.smiles>
Cc1nccc2c3ccccc3n(CCCCn3c4ccccc4c4ccnc(C)c43)c12

>  <label.class>
Fulfilled

$$$$
>  <structure.smiles>
c1ccc2c(c1)c1ccncc1n2CCCCCCn1c2ccccc2c2ccncc21

>  <label.class>
Fulfilled

$$$$
>  <structure.smiles>
Cc1nccc2c3ccccc3n(CCCCCCn3c4ccccc4c4ccnc(C)c43)c12

>  <label.class>
Not fulfilled

$$$$
